assay: Antiproliferative activity against human COLO205 cells by MTT assay; assay type: functional, cell-based; details: COLO 205
Cut-off 20 µM on IC50: below means criterion met, at or above means criterion not met.

{"compoundStructure": "Oc1ccccc1/C=C/c1ccc(Br)cc1", "classAssignment": "criterion not met"}
{"compoundStructure": "COc1ccc(/C=C/c2cc(OC)c(OC)c(OC)c2)c(O)c1", "classAssignment": "criterion met"}
{"compoundStructure": "Oc1ccc(/C=C/c2cc(O)cc(O)c2)cc1", "classAssignment": "criterion not met"}
{"compoundStructure": "COc1cc(/C=C/c2cc(Br)ccc2O)cc(OC)c1", "classAssignment": "criterion met"}
